- tested on: T1, CoilY probe peptide (reporter named in each row (AF647, rhodamine or biotin) conjugated to the reactive cysteine by maleimide chemistry; label state not stated for the biophysical characterisation)
- T1 construct: Recombinant from E. coli, with linker, reactive cysteine and His6 tag; All differently labelled CoilY probes are kept as one molecule; also called Coil5; Zip5
- T1 peptide: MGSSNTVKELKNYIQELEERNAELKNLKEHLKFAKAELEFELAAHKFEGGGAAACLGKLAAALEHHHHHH
- method summary: purified peptides; interferometry is named among the characterisation methods
readout: pKd
API: returns pKd as number; meaning -log10 of concentration in mol/L.

So for CoilZ probe peptide (reporter named in each row (AF647, fluorescein or biotin) conjugated to the reactive cysteine by maleimide chemistry; label state not stated for the biophysical characterisation, Recombinant from E. coli, with linker, reactive cysteine and His6 tag; All differently labelled CoilZ probes are kept as one molecule; also called Coil6; Zip6) peptide: MGSSQKVAQLKNRVAYKLKENAKLENIVARLENDNANLEKDIANLEKDIANLERDVARGGGAAACLGKLAAALEHHHHHH , the logged pKd turned out to be 8.44
